Attribution: patent US20240140952A1

Below, each of the compounds is paired with its reported IC50 value.
target_system: JAK2 (Homo sapiens (Human), UniProt O60674)
Sequence (O60674 whole entry): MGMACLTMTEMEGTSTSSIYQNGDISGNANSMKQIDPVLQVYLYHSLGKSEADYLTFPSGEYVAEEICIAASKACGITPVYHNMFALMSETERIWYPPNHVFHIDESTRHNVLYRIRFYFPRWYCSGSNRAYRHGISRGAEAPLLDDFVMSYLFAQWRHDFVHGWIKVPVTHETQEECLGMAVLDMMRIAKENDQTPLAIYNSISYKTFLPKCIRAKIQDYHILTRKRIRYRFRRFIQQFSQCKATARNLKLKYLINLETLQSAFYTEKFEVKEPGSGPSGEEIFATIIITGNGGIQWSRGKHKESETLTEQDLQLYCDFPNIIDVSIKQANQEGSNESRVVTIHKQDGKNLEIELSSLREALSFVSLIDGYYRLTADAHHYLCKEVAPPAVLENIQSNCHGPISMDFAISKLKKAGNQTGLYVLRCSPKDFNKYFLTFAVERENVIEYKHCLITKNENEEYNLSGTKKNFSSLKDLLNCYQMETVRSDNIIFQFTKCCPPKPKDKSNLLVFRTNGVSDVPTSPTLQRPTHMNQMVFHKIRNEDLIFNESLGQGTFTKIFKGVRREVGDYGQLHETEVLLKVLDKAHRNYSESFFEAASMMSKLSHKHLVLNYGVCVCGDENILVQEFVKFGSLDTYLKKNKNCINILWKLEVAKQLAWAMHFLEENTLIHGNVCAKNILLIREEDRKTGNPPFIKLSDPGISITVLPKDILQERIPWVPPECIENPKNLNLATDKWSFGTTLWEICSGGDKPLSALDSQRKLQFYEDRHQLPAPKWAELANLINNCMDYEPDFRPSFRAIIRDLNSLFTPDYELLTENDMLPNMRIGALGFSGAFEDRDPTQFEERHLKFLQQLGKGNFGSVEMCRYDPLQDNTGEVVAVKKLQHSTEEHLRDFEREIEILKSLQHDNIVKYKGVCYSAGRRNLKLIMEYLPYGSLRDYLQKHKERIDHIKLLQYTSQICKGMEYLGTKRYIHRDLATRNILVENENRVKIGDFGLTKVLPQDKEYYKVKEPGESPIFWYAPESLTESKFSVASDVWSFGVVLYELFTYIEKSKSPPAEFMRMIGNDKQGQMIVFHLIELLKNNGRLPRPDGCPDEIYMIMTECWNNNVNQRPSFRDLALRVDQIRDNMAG
test_description: Radiometric assay of enzymatic JAK2 activity by Reaction Biology Corp.
Format: biochemical
setup_conditions: read-out: Biochemical inhibition IC50

Recorded IC50, per entry:
N#CCCn1cc(-c2nc(Nc3ccc(C4CCNCC4)cc3)nc3[nH]ccc23)cn1 | 0.13 nM
N#CC[C@H](C1CCCC1)n1cc(-c2nc(Nc3ccc(C4CCNCC4)cc3)nc3[nH]ccc23)cn1 [(R)-1] | 0.15 nM
N#CC[C@@H](C1CCCC1)n1cc(-c2nc(Nc3ccc(C4CCNCC4)cc3)nc3[nH]ccc23)cn1 [(S)-1] | 0.099 nM

Return IC50 for the following compound: Cc1cnc(Nc2ccc(C3CCN(C)CC3)c(F)c2)nc1Nc1ccc2c(c1)N(S(=O)(=O)C(C)(C)C)CC2
3.6 nM

====

target_system: JAK2 (Homo sapiens (Human))
test_description: Radiometric assay of enzymatic JAK2 activity by Reaction Biology Corp.
Type: biochemical
reported_endpoint: IC50

Return IC50 for the following molecule: N#CC[C@H](C1CCCC1)n1cc(-c2nc(Nc3ccc(C4CCNCC4)cc3)nc3[nH]ccc23)cn1 [(R)-1]
< 0.15 nM

====

target_system: JAK2 (Homo sapiens (Human), UniProt O60674)
test_description: Radiometric assay of enzymatic JAK2 activity by Reaction Biology Corp.
Format: biochemical
setup_conditions: radiometric assay; ± SD from two data sets; read-out: Biochemical inhibition IC50
reported_endpoint: IC50 (nM)
Just the number please, in nM, no unit attached.

Recorded IC50, per entry:
C=CCCn1cc(-c2nc(Nc3ccc(C4CCNCC4)cc3)nc3[nH]ccc23)cn1 [Compound 3] | 0.26
Cc1cnc(Nc2cc(F)c(C3CCN(C)CC3)c(F)c2)nc1Nc1ccc(F)c(NS(=O)(=O)C(C)(C)C)c1 [Compound 5] | 8.2

Okay, now this compound:
Return IC50 for the following compound: Cc1cnc(Nc2ccc(C3CCN(C)CC3)c(F)c2)nc1Nc1ccc(F)c(NS(=O)(=O)C(C)(C)C)c1 [Compound 4]
6.5
